Values were extracted from patent US20250368745A1.

Target: T1, human IL-18BP (human, UniProt O95998 31-194)
T1 construct: UniProt printed as 095998; also called hIL-18BP
T1 sequence: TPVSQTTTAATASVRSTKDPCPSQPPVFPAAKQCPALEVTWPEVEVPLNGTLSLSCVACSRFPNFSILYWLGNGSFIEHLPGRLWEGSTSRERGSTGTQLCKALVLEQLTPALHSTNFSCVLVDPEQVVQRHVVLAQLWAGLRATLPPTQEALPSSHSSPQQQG
Assay: BLI, apparent KD
pKd: −log10 of the molar value.

>  <binder>
SA301a LC-T96E (antibody, V domains shown) VH: QVQLQESGPGLVKPSQTLSLTCTVSGYSITSDYNSHWIRQPPGKGLEWIGYIHYSGSTNYNPSLKSRVTISRDTSKNQFSLKLSSVTAADTAVYYCARNYGSIYVNYFDYWGQGTLVTVSS VL: EIVLTQSPATLSLSPGERATLSCSASSSVSYMYWYQQKPGQAPRPLIYRTSNLASGIPARFSGSGSGTDFTLTISSLEPEDFAVYYCQQYHSYPEFGGGTKVEIK

>  <pKd>
9.51

$$$$
>  <binder>
SA301a LC-Q89L (antibody, V domains shown) VH: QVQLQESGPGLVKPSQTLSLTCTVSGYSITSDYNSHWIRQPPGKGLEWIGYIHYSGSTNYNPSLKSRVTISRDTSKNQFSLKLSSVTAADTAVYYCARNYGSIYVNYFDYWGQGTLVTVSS VL: EIVLTQSPATLSLSPGERATLSCSASSSVSYMYWYQQKPGQAPRPLIYRTSNLASGIPARFSGSGSGTDFTLTISSLEPEDFAVYYCLQYHSYPTFGGGTKVEIK

>  <pKd>
9.07

$$$$
